Measured inhibition at 0.1 µM of individual entries
- target.or.test.system: CYP11B1 (Homo sapiens)
- Construct: Thus, the NCI-H295R cells have Cyp11 B1 (steroid 11 p-hydroxylase); host or cells: NCI-H295R
- Sequence (P15538 25-503): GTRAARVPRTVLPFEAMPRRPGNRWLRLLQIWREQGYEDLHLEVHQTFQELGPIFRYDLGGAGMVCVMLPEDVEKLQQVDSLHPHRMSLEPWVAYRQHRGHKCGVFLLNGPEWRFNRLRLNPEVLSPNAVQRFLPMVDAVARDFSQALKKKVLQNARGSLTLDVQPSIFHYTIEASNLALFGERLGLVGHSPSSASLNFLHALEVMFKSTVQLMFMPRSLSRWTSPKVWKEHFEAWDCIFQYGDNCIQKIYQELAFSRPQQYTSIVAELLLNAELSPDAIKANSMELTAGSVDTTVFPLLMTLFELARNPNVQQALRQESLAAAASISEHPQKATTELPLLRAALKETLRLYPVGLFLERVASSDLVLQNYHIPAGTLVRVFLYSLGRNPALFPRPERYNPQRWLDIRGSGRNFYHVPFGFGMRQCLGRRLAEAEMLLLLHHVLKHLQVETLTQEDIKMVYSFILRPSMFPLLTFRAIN
- test.method.notes: in vitro CYP11B1 inhibition, steroid release from NCI-H295R cells
- Format: cell-based
- test.conditions: NCI-H295R; read-out: 11B1 % I @ 100 nM

molecule	inhibition at 0.1 µM, %
COC(=O)c1cncn1C1c2ccccc2OC1(C)C (stereo not drawn)	96
COC(=O)c1cncn1C1c2ccccc2C(=O)CC1(C)C (single isomer, unassigned)	99
CC1(C)C(n2cncc2CO)c2ccccc2S1(=O)=O (stereo not drawn)	93
